systemUnderTest: T1, rhesus melanocortin-4 receptor protein (rhesus monkey (Macaca mulatta), UniProt Q8HXX3 1-332 (cynomolgus entry))
T1 construct: This is the full-length 332 amino acid receptor encoded by pVE3099; also called rhMC-4R; rhesus MC-4R
T1 sequence (Q8HXX3 whole entry R167G): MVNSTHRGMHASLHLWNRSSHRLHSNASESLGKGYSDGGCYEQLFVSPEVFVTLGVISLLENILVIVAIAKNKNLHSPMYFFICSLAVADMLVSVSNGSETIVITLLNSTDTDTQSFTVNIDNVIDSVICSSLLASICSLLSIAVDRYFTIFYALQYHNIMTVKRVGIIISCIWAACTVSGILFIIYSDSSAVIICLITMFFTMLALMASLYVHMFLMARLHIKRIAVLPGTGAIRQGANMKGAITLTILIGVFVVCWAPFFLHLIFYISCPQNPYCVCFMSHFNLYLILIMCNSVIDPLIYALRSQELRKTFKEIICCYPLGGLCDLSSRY
Where no end group is shown, it is not given here.
metricName: IC50 (nM)

binder="DEGPYRMEHFRWGSPPKD (peptide, UniProt P01189 217-234, looked up, domain: beta MSH; The peptide is only a part of it; also called β-MSH) [Beta MSH]" metricname=IC50 units=nM recordedmeasurement=23
binder="YVMGHFRWDRF (peptide, UniProt P01189 77-87, looked up, ends and bridges not checked, domain: gamma MSH; The peptide is only a part of it; also called γ-MSH) [Gamma MSH]" metricname=IC50 units=nM recordedmeasurement=211
binder="SYSMEHFRWGKPV (peptide, UniProt P01189 138-150, looked up, domain: alpha MSH; The peptide is only a part of it; also called α-MSH; α-melanocyte stimulating hormone) [Alpha MSH]" metricname=IC50 units=nM recordedmeasurement=27
binder="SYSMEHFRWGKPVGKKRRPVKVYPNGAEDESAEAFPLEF (peptide, UniProt P01189 138-176, looked up, domain: ACTH1-39; The numbers 1-39 count on the ACTH peptide, not on the precursor) [ACTH1-39]" metricname=IC50 units=nM recordedmeasurement=1.3
